tested on: UO-31 renal; experiment: NCI-60 one-dose screen, 48 h (100 = growth as untreated, 0 = no growth, -100 = all killed); details: 10 µM unless noted
This is part of a sample that, as a whole, favours compounds with a hit. Of some 83,000 tested, about 20% had one in any assay.
attribute.measured: growth (%)

>>> val("COC(=O)CC[C@H](Cc1ccccc1)NC(=O)c1csc([C@@H](C[C@H](C(C)C)N(C)C(=O)[C@@H](NC(=O)[C@H]2CCCCN2C)C(C)C)OC(C)=O)n1")
49.7
>>> val("C[C@]12CC[C@H]3[C@@H](CC4SC(N)=NC45C/C(=N/NC(N)=O)CC[C@]35C)[C@@H]1CCC2=O (stereo partly specified)")
85.8
>>> val("COc1ccc(C(=O)c2sc3nc4c(cc3c2N)N2CCC4CC2)cc1OC")
52.8
>>> val("CC(=O)OC[C@]1(C)C=C2C(=O)[C@](C)(O)C3(CC3)C(C)=C2[C@H]1O")
-47.3
>>> val("CC1=C(CNO)C2=C(C)C3(CC3)[C@@](C)(O)C(=O)C2=C1")
-57.7
>>> val("CCOC(=O)C(Cc1ccc(N(CCCl)CCCl)cc1)NC(=O)C(CC(C)C)NC(C)=O (stereo unspecified)")
-48.7

###

tested on: MCF7 breast; assay: NCI-60 one-dose screen, 48 h (100 = growth as untreated, 0 = no growth, -100 = all killed); settings: 10 µM unless noted
This is part of a sample that, as a whole, favours compounds with a hit. Of some 83,000 tested, about 20% had one in any assay.
Sorting guide: entries reporting growth beneath 50% go in the Condition met pile, the rest go in the Condition not met pile.

>>> discrete_label("COC(=O)CC12CC(NC(=O)c3csc([C@@H](C[C@H](C(C)C)N(C)C(=O)[C@@H](NC(=O)[C@H]4CCCCN4C)C(C)C)OC(C)=O)n3)(C1)C2")
"Condition met"
>>> discrete_label("Brc1ccc2c(c1)c(-c1nc(-c3c[nH]c4ncccc34)cs1)cn2CCN1CCCCC1")
"Condition met"
>>> discrete_label("O=[As](O)(O)c1ccccc1[As](=O)(O)O")
"Condition not met"
>>> discrete_label("COC1=CC(=O)O[C@@H](/C=C/c2ccc3c(c2)OCO3)C1")
"Condition not met"
>>> discrete_label("CCCCC1(CCC)C(=O)NC(=S)NC1=O")
"Condition not met"
>>> discrete_label("CC12CC=CCC1CCC1C2CCC2(C)C(c3ccc(=O)oc3)CCC12O (configuration not stated)")
"Condition met"
>>> discrete_label("CCC1(C(C)C)C(=O)NC(=S)NC1=O")
"Condition not met"

###

Listed here: items and their measured growth.
test system: UO-31 renal; test: NCI-60 one-dose screen, 48 h (100 = growth as untreated, 0 = no growth, -100 = all killed); conditions: 10 µM unless noted
Compounds without any hit were thinned out: in the full panel of roughly 83,000, 20% have a hit. Calls of active or inactive are those of the source. How the source made its calls: active means growth percent below 10; inactive means the rest.
attribute.measured: growth

>>> val("COC(=O)[C@@H](C)C[C@H](Cc1ccccc1)NC(=O)c1nc([C@@H](C[C@H](C(C)C)N(C)C(=O)[C@@H](NC(=O)[C@H]2CCCCN2C)C(C)C)OC(C)=O)sc1C(C)C")
"18.3% (inactive)"
>>> val("O=C1OCC2=C1C(c1ccccc1)c1cc3c(cc1N2)OCO3 (centres undefined)")
"45.6% (inactive)"
>>> val("O=C(CC1(O)C(=O)N(Cc2ccccc2)c2ccc(Cl)cc21)c1ccc(C(=O)NCC2CCC3(CC2)OOC2(CCCCC2)OO3)cc1 (centres undefined)")
"-74.2% (active)"
>>> val("O[C@H](CN1CC1)[C@@H](O)CN1CC1")
"51.1% (inactive)"
>>> val("CSc1nc(Cl)cc(N2CC2)n1")
"114% (inactive)"
>>> val("O=[N+]([O-])c1cnc[nH]1")
"94.8% (inactive)"
>>> val("CCC[CH2][Sn]([CH2]CCC)([CH2]CCC)[O]c1ccc(Cl)cc1Cl")
"-85.3% (active)"
>>> val("COc1cc2c(=O)n(C3CCCCCCC3)c3c4cc[nH]c4ncc3c2cc1OC")
"22.5% (inactive)"
>>> val("c1ccc(Nc2nc(-c3ccccc3)c[se]2)cc1")
"46.2% (inactive)"
>>> val("N/C(=N\\N=C\\c1ccc(-c2ccccc2)cc1)N[N+](=O)[O-]")
"45.2% (inactive)"
>>> val("Brc1ccc2c(c1)c(-c1nc(-c3c[nH]c4ncccc34)cs1)cn2CCN1CCOCC1")
"35.8% (inactive)"
>>> val("COc1ccc(C2=CC(c3ccc(OC)c(OC)c3)c3c(c4ccccc4oc3=O)O2)cc1OC (centres undefined)")
"21.8% (inactive)"
>>> val("CC1=C(CCCOC(=O)CN)C2=C(C)C3(CC3)[C@@](C)(O)C(=O)C2=C1")
"73.3% (inactive)"
>>> val("CC(C)=CCC[C@H](C(=O)O)[C@@H]1CC[C@]2(C)C3=C(CC[C@@]12C)[C@@]1(C)CC[C@H](O)C(C)(C)[C@@H]1CC3")
"89.8% (inactive)"
>>> val("CCCCCCCCCCCCCCCCCC1OC[C@H](COC(=O)O[C@@H](C(=O)O[C@H]2C[C@@]3(O)[C@@H](OC(=O)c4ccccc4)[C@@H]4[C@]5(OC(C)=O)CO[C@@H]5C[C@H](O)[C@@]4(C)C(=O)[C@H](OC(C)=O)C(=C2C)C3(C)C)[C@@H](NC(=O)c2ccccc2)c2ccccc2)O1 (some centres undefined)")
"98.1% (inactive)"
>>> val("ClC1=C(Cl)C(Cl)(C2(Cl)C(Cl)=C(Cl)C(Cl)=C2Cl)C(Cl)=C1Cl")
"-89.6% (active)"
>>> val("CCCCCCCCCCCCCC[P+](CCCCCC)(CCCCCC)CCCCCC")
"-36.6% (active)"
>>> val("CCNc1nc(Cl)nc(NCC)n1")
"77.1% (inactive)"
>>> val("O=C(N/N=C\\c1ccc(N(CCCl)CCCl)cc1)c1cccc([N+](=O)[O-])c1")
"90.6% (inactive)"
>>> val("COc1ccc2c(c1)c(-c1nc(-c3c[nH]c4ncccc34)cs1)cn2CCN1CCOCC1")
"15.4% (inactive)"
>>> val("CC(=O)Nc1nc2c(s1)CC[C@@]1(C)C2=CC[C@H]2[C@@H]3CC[C@H](O)[C@@]3(C)CC[C@@H]21")
"80.3% (inactive)"
>>> val("Nc1ncnc2n[nH]nc12")
"35.9% (inactive)"
>>> val("COC(=O)[C@@H](C)C[C@H](Cc1ccccc1)NC(=O)c1csc([C@@H](C[C@H](C(C)C)N(C)C(=O)[C@@H](NC(=O)[C@H]2CCCCN2C)C(C)C)OC(C)=O)n1")
"42% (inactive)"
>>> val("O=C1C2C(C(=O)[N]1[Hg][c]1cccs1)C1(Cl)C(Cl)=C(Cl)C2(Cl)C1(Cl)Cl (centres undefined)")
"-29.8% (active)"

Each recorded value in this set is attributed to PubChem BioAssay (NCI).
